Target: human sEH (Homo sapiens, UniProt P34913)
Sequence (P34913 whole entry): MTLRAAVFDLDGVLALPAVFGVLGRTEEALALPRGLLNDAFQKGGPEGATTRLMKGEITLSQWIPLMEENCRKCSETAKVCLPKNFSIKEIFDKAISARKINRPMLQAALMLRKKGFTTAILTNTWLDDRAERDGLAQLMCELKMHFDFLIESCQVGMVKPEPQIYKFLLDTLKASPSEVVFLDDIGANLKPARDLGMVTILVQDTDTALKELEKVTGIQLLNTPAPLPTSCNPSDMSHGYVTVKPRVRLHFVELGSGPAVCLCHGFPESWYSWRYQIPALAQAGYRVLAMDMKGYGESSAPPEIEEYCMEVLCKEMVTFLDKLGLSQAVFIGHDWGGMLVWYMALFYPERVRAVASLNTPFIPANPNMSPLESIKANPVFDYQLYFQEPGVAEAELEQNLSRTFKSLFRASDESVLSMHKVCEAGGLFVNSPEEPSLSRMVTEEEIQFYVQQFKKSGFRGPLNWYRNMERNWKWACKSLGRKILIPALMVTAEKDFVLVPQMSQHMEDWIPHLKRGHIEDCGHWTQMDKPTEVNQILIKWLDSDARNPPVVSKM
Assay: Inhibition of recombinant human soluble EH, spectrophotometric NEP2C assay
Conditions: recombinant enzyme, NEP2C 40 μM, 30° C., pH 7.4
Hi there, I'd appreciate the recorded pIC50 for every entry that follows.
Remember, pIC50 is on a log scale: it is -log10 of the molar concentration.

// fetch human sEH (Homo sapiens, UniProt P34913) pIC50 for S=C(NC1CCCCC1)NC1CCCCC1 4.70

Then what about the molecule CCCCCCCCCCNC(=O)NCC ? 4.32

Then what about the molecule CNC(=O)Nc1ccc(Cl)c(Cl)c1 ? 4.33

Then what about the molecule CCCCCCCCCCCCNC(=O)NCCF ? 4.24

Then what about the molecule [O-][S+](Cc1ccccc1)Cc1ccccc1 ? 3.54

Then what about the molecule O=C(NC1CCCCC1)SC1CCCCC1 ? 5.12

Then what about the molecule [H]/N=C(\N/C(=N/[H])NCCCCCCNC(=N)NC(=N)Nc1ccc(Cl)cc1)Nc1ccc(Cl)cc1 ? 4.31

Then what about the molecule CC1CCC(C(C)C)C(OC(=O)NC2CCCCC2)C1 (stereo not shown) ? 5.98

Then what about the molecule CCCCCCCCNC(N)=O ? 5.26

* * *

Target: mouse sEH (Mus musculus)
Construct: made in house; host or cells: baculovirus expression system (insect cells)
Sequence (P34914 1-554): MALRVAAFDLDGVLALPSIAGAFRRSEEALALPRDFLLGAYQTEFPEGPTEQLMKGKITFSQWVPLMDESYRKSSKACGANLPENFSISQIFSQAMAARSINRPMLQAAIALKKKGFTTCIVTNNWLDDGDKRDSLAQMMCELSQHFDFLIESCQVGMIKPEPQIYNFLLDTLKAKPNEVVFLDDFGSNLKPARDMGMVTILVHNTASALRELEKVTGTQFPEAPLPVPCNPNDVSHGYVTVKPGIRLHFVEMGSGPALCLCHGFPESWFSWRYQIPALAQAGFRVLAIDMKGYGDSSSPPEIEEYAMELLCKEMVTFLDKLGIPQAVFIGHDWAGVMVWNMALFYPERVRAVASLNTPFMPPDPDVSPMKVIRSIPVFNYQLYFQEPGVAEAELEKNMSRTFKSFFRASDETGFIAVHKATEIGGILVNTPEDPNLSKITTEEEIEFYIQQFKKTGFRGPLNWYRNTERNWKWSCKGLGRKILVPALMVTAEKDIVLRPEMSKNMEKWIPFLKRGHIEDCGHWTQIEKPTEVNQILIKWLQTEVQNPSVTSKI
Experiment: Inhibition of recombinant mouse soluble EH, spectrophotometric NEP2C assay
Format: biochemical
Hi there, I'd appreciate the recorded IC50 for every entry that follows.
Just the number please, in µM, no unit attached.

Please give the measured IC50 for this compound: [O-][S+](Cc1ccccc1)Cc1ccccc1 156

Then what about the compound O=C(NC1CCCCC1)SC1CCCCC1 ? 3.8
